Numbers sourced from PubChem BioAssay (NCATS).

- target or test system: Peptidyl-prolyl cis-trans isomerase NIMA-interacting 1 (Homo sapiens) (UniProt Q13526)
- Sequence (Q13526 whole entry, looked up): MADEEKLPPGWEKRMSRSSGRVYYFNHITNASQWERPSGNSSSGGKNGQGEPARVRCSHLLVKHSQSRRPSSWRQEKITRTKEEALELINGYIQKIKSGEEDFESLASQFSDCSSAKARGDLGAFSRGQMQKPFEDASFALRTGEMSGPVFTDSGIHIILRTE
- assay method text: qHTS Validation Assay to Find Inhibitors of Pin1 (AID 504536)
- settings: Pin1 fluorescence polarization peptide binding assay; series mostly up to 57.5 µM
- Description: NIH Molecular Libraries Probe Production Network [MLPCN] NIH Chemical Genomics Center [NCGC] The unique chemical properties of Pro allow for the adoption of two completely distinct amide bond conformations (cis and trans). […] The goal of this screen is to find small-molecule inhibitors of Pin1 using a fluorescence polarization competition assay. […] Concentration-response curves were fitted to the signals arising from the resulting fluorescence polarization. […]
Records with an inconclusive call do not appear. Calls of active or inactive are those of the source. Calls come from the whole dose curve; as a rule, active = well fitted inhibition curve with a large enough effect in the polarisation, with a control signal flat (not every such curve was filed as active); inconclusive = small, poorly fitted or top-dose-only effect, or effect the other way; inactive = flat fitted curve, though single readings scatter; the % refers to the polarisation.
Output constraint: value belongs to 1 (active), -1 (inactive)

How was S=C(Nc1ccccc1)Nc1nccs1 classified in this test?
-1

How was C[C@H](Cc1ccccc1)Nc1ncnc2c1ncn2[C@@H]1O[C@H](CO)[C@@H](O)[C@H]1O classified in this test?
-1

How was Nc1c(S(=O)(=O)O)cc(Nc2ccc(Nc3nc(Cl)nc(Nc4ccc(S(=O)(=O)O)cc4)n3)c(S(=O)(=O)O)c2)c2c1C(=O)c1ccccc1C2=O classified in this test?
1

How was CCc1ccc(/C=C2/SC(=S)NC2=O)cc1 classified in this test?
-1

How was Oc1cc2c(c(Cl)c1O)CCNCC2c1ccccc1 (stereo unspecified) classified in this test?
-1

How was Cc1cccc(/C=C/c2ccccc2)n1 classified in this test?
-1
